assayed.target: Sushi domains (SD1/2) protein of the GABAB1a (GB1a) subunit, recombinant
Sequence (Q9Z0U4 29-158): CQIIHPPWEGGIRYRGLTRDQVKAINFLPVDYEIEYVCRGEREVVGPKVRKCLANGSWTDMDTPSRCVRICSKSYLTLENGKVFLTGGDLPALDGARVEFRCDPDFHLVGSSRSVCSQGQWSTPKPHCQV
method: FP competition
pKi: −log10 of the molar value. Non-standard residues stand in square brackets, D forms with d. Sar = CNCC(=O)O
This section presents binders with their documented pKi values.

binder | pKi
Ac-EDDSDVWWGGADTDYAD-NH2 […] | 6.55
Ac-PWAIVWG[Sar]TVSRED-NH2 (SMILES CC[C@H](C)[C@H](NC(=O)[C@H](C)NC(=O)[C@H](Cc1c[nH]c2ccccc12)NC(=O)[C@@H]1CCCN1C(C)=O)C(=O)N[C@H](C(=O)N[C@@H](Cc1c[nH]c2ccccc12)C(=O)NCC(=O)N(C)CC(=O)N[C@H](C(=O)N[C@H](C(=O)N[C@@H](CO)C(=O)N[C@@H](CCCNC(=N)N)C(=O)N[C@@H](CCC(=O)O)C(=O)N[C@@H](CC(=O)O)C(N)=O)C(C)C)[C@@H](C)O)C(C)C) [PWAIVWG(N-Me-G)TVSRED] | 6.28
